Consider the following compounds; for each one, report its IC50.
Target: 20S Human Erythrocyte Proteasome (HEP) (Homo sapiens, UniProt P20618+P28074)
Construct: 20S Human Erythrocyte Proteasome (HEP), purchased from Immatics Biotechnologies Inc
Assay: Chymotrypsin-like activity of 20S Human Erythrocyte Proteasome (HEP), IC50 determination
Details: assay of Example C, inhibition of HEP

Record IC50 per entry; entries follow.
1. CCCCc1ccc(C(=O)N[C@H](C(=O)N[C@@H](CC(C)C)B(O)O)[C@@H](C)O)cc1
2. CC(C)C[C@H](NC(=O)[C@H](CCCNC(=N)N[N+](=O)[O-])NC(=O)CN1CCCCC1)B1O[C@@H]2C[C@@H]3C[C@@H](C3(C)C)[C@]2(C)O1
3. CCOC(=O)/C=C/C(=O)N[C@@H](CCCNC(=N)N[N+](=O)[O-])C(=O)N[C@@H](CC(C)C)B1O[C@@H]2C[C@@H]3C[C@@H](C3(C)C)[C@]2(C)O1

< 10 nM
< 100 nM
< 10 nM

###

What pIC50 was measured for each of the following?
Molecular target: 20S Human Erythrocyte Proteasome (HEP) (Homo sapiens, UniProt P20618+P28074)
Construct: 20S Human Erythrocyte Proteasome (HEP), purchased from Immatics Biotechnologies Inc
Test: Chymotrypsin-like activity of 20S Human Erythrocyte Proteasome (HEP), IC50 determination
Settings: assay of Example C, inhibition of HEP
pIC50: −log10 of the molar value.

Example results:
1. CCCCc1ccc(C(=O)N[C@@H](CNC(=O)Cc2ccc(OC)c(OC)c2)C(=O)N[C@@H](CC(C)C)B2O[C@@H]3C[C@@H]4C[C@@H](C4(C)C)[C@]3(C)O2)cc1 ... > 8.00
2. CC(C)C[C@H](NC(=O)[C@H](CCCNC(=N)N[N+](=O)[O-])NC(=O)C1CCC(C(C)(C)C)CC1)B(O)O (stereo partly shown) ... > 8.00
3. CC(C)C[C@H](NC(=O)[C@H](CCCNC(=N)N[N+](=O)[O-])NC(=O)c1cccs1)B(O)O ... > 8.00
4. CCCCCCCCCCCNC(=O)N[C@H](C(=O)N[C@@H](CC(C)C)B(O)O)[C@@H](C)O ... > 8.00
5. Cc1ccc(C)c(CC(=O)N[C@@H](CCCNC(=N)N[N+](=O)[O-])C(=O)N[C@@H](CC(C)C)B(O)O)c1 ... > 8.00
6. CCCCOCC(=O)N[C@@H](CCCNC(=N)N[N+](=O)[O-])C(=O)N[C@@H](CC(C)C)B1O[C@@H]2C[C@@H]3C[C@@H](C3(C)C)[C@]2(C)O1 ... > 8.00
7. CCCCCc1ccc(S(=O)(=O)N[C@@H](CCCNC(=N)N[N+](=O)[O-])C(=O)N[C@@H](CC(C)C)B2O[C@@H]3C[C@@H]4C[C@@H](C4(C)C)[C@]3(C)O2)cc1 ... > 7.00
8. CCCCC(CC)CCC(=O)N[C@@H](CCCNC(=N)N[N+](=O)[O-])C(=O)N[C@@H](CC(C)C)B(O)O (mixture of isomers) ... > 8.00
9. CC[C@@H](C(=O)N[C@@H](CCCNC(=N)N[N+](=O)[O-])C(=O)N[C@@H](CC(C)C)B(O)O)c1ccccc1 ... > 8.00
10. CCc1ccc(OCC(=O)N[C@@H](CCCNC(=N)N[N+](=O)[O-])C(=O)N[C@@H](CC(C)C)B2O[C@@H]3C[C@@H]4C[C@@H](C4(C)C)[C@]3(C)O2)cc1 ... > 8.00

List pIC50 for every entry below, keeping the order given.
1. CC(C)C[C@H](NC(=O)[C@H](CCCNC(=N)N[N+](=O)[O-])NC(=O)/C=C/c1ccc2ccccc2c1)B(O)O
2. CCCCCCCCCC(=O)N[C@@H](CC(N)=O)C(=O)N[C@@H](CC(C)C)B1O[C@@H]2C[C@@H]3C[C@@H](C3(C)C)[C@]2(C)O1
3. CC(C)C[C@H](NC(=O)[C@H](CCCNC(=N)N[N+](=O)[O-])NC(=O)CSc1ncccn1)B1O[C@@H]2C[C@@H]3C[C@@H](C3(C)C)[C@]2(C)O1

1. > 8.00
2. > 8.00
3. > 7.00

###

Target: proteasome in Molt-4 cells (human leukemia) (Homo sapiens, UniProt P20618+P28074)
Sequence (P28074 60-263): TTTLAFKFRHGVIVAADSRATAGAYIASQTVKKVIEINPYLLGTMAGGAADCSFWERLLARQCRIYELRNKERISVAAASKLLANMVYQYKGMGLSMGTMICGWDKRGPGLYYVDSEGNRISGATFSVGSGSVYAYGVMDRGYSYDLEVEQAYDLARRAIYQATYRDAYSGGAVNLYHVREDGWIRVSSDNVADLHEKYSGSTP
Sequence (P20618 29-241): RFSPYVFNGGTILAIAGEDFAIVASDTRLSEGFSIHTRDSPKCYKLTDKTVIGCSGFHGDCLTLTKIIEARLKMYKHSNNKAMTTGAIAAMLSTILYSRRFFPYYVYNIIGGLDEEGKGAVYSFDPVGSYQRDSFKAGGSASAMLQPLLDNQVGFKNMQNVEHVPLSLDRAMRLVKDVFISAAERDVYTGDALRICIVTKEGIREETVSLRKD
Type: cell-based
Details: assay of Example E, inhibition of MOLT4; read-out: MOLT4 (EC50)
pEC50: −log10 of the molar value.
ENDPOINT_LABEL: pEC50

These solved cases illustrate the format of a correct answer.
1) CCCOc1ccc(C(=O)N[C@H](C(=O)N[C@@H](CC(C)C)B(O)O)[C@@H](C)O)cc1 ... > 6.70
2) Cc1ccc(C)c(OCCCC(C)(C)C(=O)N[C@@H](CCCNC(=N)N[N+](=O)[O-])C(=O)N[C@@H](CC(C)C)B(O)O)c1 ... 5.70 to 6.70
3) CC(C)C[C@H](NC(=O)[C@H](CCCNC(=N)N[N+](=O)[O-])NC(=O)CCCOc1ccccc1)B(O)O ... < 5.00
4) CC(C)C[C@H](NC(=O)[C@H](CCCNC(=N)N[N+](=O)[O-])NC(=O)CSc1ccc2ccccc2c1)B(O)O ... 5.00 to 5.70
5) CC(C)C[C@H](NC(=O)[C@H](CCCNC(=N)N[N+](=O)[O-])NC(=O)CCC(=O)c1ccc(S(C)(=O)=O)cc1)B(O)O ... < 5.00

Each of the following entries comes with a recorded value; kindly state pEC50 for each.
1. COc1ccc(C(=O)N[C@@H](CCCNC(=N)N[N+](=O)[O-])C(=O)N[C@@H](CC(C)C)B(O)O)cc1F
2. Cc1ccc(/C=C/C(=O)N[C@@H](CCCNC(=N)N[N+](=O)[O-])C(=O)N[C@@H](CC(C)C)B(O)O)cc1
3. CC(C)C[C@H](NC(=O)[C@@H](NC(=O)c1ccc(-c2ccccc2)cc1)[C@@H](C)O)B1O[C@@H]2C[C@@H]3C[C@@H](C3(C)C)[C@]2(C)O1
4. Cc1ccc(OCC(=O)N[C@@H](CCCNC(=N)N[N+](=O)[O-])C(=O)N[C@@H](CC(C)C)B(O)O)cc1C
5. CCCCCCCCCCCC(=O)N[C@@H](CCCNC(=N)N[N+](=O)[O-])C(=O)N[C@@H](CC(C)C)B1O[C@@H]2C[C@@H]3C[C@@H](C3(C)C)[C@]2(C)O1
6. CC(C)C[C@H](NC(=O)[C@H](CCCNC(=N)N[N+](=O)[O-])NC(=O)CCCC(=O)c1ccsc1)B(O)O
7. CCCCc1ccc(C(=O)N[C@@H](CC(N)=O)C(=O)N[C@@H](CC(C)C)B2O[C@@H]3C[C@@H]4C[C@@H](C4(C)C)[C@]3(C)O2)cc1

< 5.00
5.00 to 5.70
> 6.70
5.70 to 6.70
> 6.70
< 5.00
> 6.70

# pEC50 lookup, item `CC(C)C[C@H](NC(=O)[C@H](CCCNC(=N)N[N+](=O)[O-])NC(=O)CCCCc1ccc(F)cc1)B1O[C@@H]2C[C@@H]3C[C@@H](C3(C)C)[C@]2(C)O1`
> 6.70

###

For each of the molecules below, state its melting point.

Look over these answered cases.
1. CCCCc1ccc(C(=O)N[C@@H](CNC(=O)c2ccc(N3CCOCC3)nc2)C(=O)N[C@@H](CC(C)C)B(O)O)cc1 [E.5.28] ... 178 to 180 °C
2. CCCCc1ccc(C(=O)N[C@@H](CNC(=O)c2cccn2C)C(=O)N[C@@H](CC(C)C)B(O)O)cc1 [E.5.16] ... 130 to 135 °C
3. CCCCCCCCCCCCC(=O)N[C@H](C(=O)N[C@@H](CC(C)C)B(O)O)[C@@H](C)O [E.3.3] ... 97 to 116 °C
4. CCCCc1ccc(C(=O)N[C@@H](CNC(=O)C2CCN(S(C)(=O)=O)CC2)C(=O)N[C@@H](CC(C)C)B(O)O)cc1 [E.5.38] ... 170 to 173 °C
5. CCCCc1ccc(C(=O)N[C@@H](CNC(=O)c2ccno2)C(=O)N[C@@H](CC(C)C)B(O)O)cc1 [E.5.25] ... 175 to 180 °C
6. CCCCc1ccc(C(=O)N[C@@H](CNC(=O)c2ccc(-c3ccccc3)cc2)C(=O)N[C@@H](CC(C)C)B(O)O)cc1 [E.5.33] ... 178 to 180 °C

State the recorded melting point for every item in the following list.
1. CCCCCCCCCC(=O)N[C@@H](CNC(=O)c1cccnc1)C(=O)N[C@@H](CC(C)C)B(O)O [E.5.22]
2. CCCCc1ccc(C(=O)N[C@@H](CNS(=O)(=O)c2cn(C)cn2)C(=O)N[C@@H](CC(C)C)B2O[C@@H]3C[C@@H]4C[C@@H](C4(C)C)[C@]3(C)O2)cc1 [D.24.23]

136 to 141 °C
69 to 71 °C
